Ref: FireProtDB (doi:10.1016/j.bpc.2006.10.013)

B1: Rubredoxin, P00268 (parent)
chain: MKKYTCTVCGYIYNPEDGDPDNGVNPGTDFKDIPDDWVCPLCGVGKDQFEEVEE

variants of: B1; conditions: Clostridium pasteurianum; pH 9.08; Thermal; NMR; Sodium borate 100 mM; reversible: Yes; structure 1IRO; whole UniProt chain shown
Endpoint Name: heat capacity change of unfolding (kcal/mol/K)
Answer with a number only, understood to be in kcal/mol/K.

Some solved cases for reference:
MKKYTCTVCGYIYNPEDGDPDNGINPGTDFKDIPDDWVCPLCGVGKDQFEEVEE
0.5
MKKYTCTVCGYIYNPEDGDPDNGVNPGTDFKDLPDDWVCPLCGVGKDQFEEVEE
0.5
MKKWTCTVCGYIYNPEDGDPDNGINPGTDFKDLPDDWVCPLCGVGKDQFEEVEE
0.5

Okay, next one:
Per the records, this variant ( MKKYTCTVCGYIYNPEDGDPDNGINPGTDFKDLPDDWVCPLCGVGKDQFEEVEE ) has heat capacity change of unfolding equal to 0.5
